Tested on: SN12C renal
Assay: NCI-60 one-dose screen, 48 h (100 = growth as untreated, 0 = no growth, -100 = all killed)
Conditions: 10 µM unless noted
Compounds without any hit were thinned out: in the full panel of roughly 83,000, 20% have a hit.
Experimental Readout: growth (%)
Expressed in %, but write only the number.

Tell me its growth on SN12C renal: CC(C)N(Cc1ccc(CN(C(=O)CCl)C(C)C)cc1)C(=O)CCl
15.4

Tell me its growth on SN12C renal: Cn1cc(C=O)c2ccccc21
91.7

Tell me its growth on SN12C renal: COc1ccc(C2=CC(c3ccc(Oc4ccnc5cc(Cl)ccc45)c(OC)c3)c3c(nc(OC)[nH]c3=O)N2)cc1 (centres undefined)
63.7

Tell me its growth on SN12C renal: Cc1ccc(C2=NN(c3ccc(S(N)(=O)=O)cc3)C(c3cn(-c4ccccc4)nc3-c3ccccc3)C2)cc1 (centres undefined)
30.7
